Origin of the recorded values: patent US20080293712A1

measured-target: PKA (Homo sapiens)
measurement-notes: PKA kinase inhibition, Z'-LYTE FRET assay
Assay type: biochemical
experimental-parameters: 20 μM ATP
value-type: IC50 (µM)

COCCN(C)C[C@H](N)COc1cncc(-c2cc3c(cnc4cc(OC)c(OC)cc43)c(N)n2)c1 ... 0.21

a. CCN1CCN(CCC#Cc2ccc3c(c2)ncc2c(N)nc(-n4ccnc4)cc23)CC1
b. COc1cc2ncc3c(N)nc(-c4cncc(OC[C@H]5CCCN5)c4)cc3c2cc1OC
c. COCCOc1cc2ncc3c(N)nc(-c4cncc(OC[C@@H](N)Cc5ccccc5)c4)cc3c2cc1OC
Given 3 compounds, produce a descending ranking by IC50. Labels, ranked as asked.
a, b, c

###

measured-target: PDK-1 (Homo sapiens)
Sequence (O15530 whole entry): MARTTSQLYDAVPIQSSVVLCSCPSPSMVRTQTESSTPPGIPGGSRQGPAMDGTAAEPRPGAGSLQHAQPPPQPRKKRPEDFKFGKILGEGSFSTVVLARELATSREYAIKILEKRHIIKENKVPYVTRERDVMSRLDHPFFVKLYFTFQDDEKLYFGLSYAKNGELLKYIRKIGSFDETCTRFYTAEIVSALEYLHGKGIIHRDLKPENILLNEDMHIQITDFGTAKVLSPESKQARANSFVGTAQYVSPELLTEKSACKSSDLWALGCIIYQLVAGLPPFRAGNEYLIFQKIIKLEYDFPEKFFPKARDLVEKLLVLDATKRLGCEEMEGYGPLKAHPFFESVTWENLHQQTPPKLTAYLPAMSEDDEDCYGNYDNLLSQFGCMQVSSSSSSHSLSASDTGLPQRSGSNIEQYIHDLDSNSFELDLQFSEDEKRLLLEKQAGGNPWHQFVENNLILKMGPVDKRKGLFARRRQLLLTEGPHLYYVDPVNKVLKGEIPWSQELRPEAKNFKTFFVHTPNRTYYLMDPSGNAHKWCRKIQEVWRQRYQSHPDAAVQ
measurement-notes: PDK-1 kinase inhibition ELISA assay (phosphorylation of His6-tagged SGK1 S422D by PDK-1)
Assay type: biochemical
experimental-parameters: PDK-1 ELISA, Table 11; read-out: Average IC50
value-type: IC50 (nM)

Example entries begin here.
COc1cc2ncc3c(N)nc(-c4cncc(Nc5ccc(C(=O)Nc6ccccc6)cc5)c4)cc3c2cc1OC [Ib-193] ... 506
COc1cc2ncc3c(N)nc(-c4cncc(OC[C@@H](N)CN5CCC(=O)CC5)c4)cc3c2cc1OC [Ib-4] ... 29

1. Nc1nc(-c2cncc(OC[C@@H](N)Cc3ccccc3)c2)cc2c1cnc1cc(/C=C/CCN3CCCC3)ccc12 [Ia-4]
2. COc1cc2ncc3c(N)nc(-c4cncc(OC[C@@H](N)Cn5ccc(=N)cc5)c4)cc3c2cc1OC [Ib-82]
3. COCCOc1cc2ncc3c(NCc4cccnc4)nc(NCc4cccnc4)cc3c2cc1OC [Compound I-3]
Given 3 molecules, produce a descending ranking by IC50. Labels, ranked as asked.
3, 2, 1
(3: 8830 nM, 2: 92 nM, 1: 27 nM)

###

Values of pIC50 reported for S6K (Homo sapiens) appear below.
pIC50: −log10 of the molar value.

COc1cc2ncc3c(N)nc(-c4cncc(C#CCN(C)Cc5ccccc5)c4)cc3c2cc1OC ... < 5.70

Enter pIC50 (test system S6K (Homo sapiens)) for COc1cc2ncc3c(N)nc(-c4cncc(OC[C@@H]5CN(c6cccc(F)c6)C(=O)N5)c4)cc3c2cc1OC
≤ 5.76

Enter pIC50 (test system S6K (Homo sapiens)) for COc1cc2ncc3c(N)nc(-c4cncc(OC[C@@H](N)Cc5ccc(F)cc5)c4)cc3c2cc1OCc1ccccc1
< 5.70

Enter pIC50 (test system S6K (Homo sapiens)) for COc1cc2ncc3c(N)nc(-c4cncc(OC[C@@H](N)Cc5cccc(C(F)(F)F)c5)c4)cc3c2cc1OC
6.71 to 6.77

###

measured-target: UniProtKB O15530
measurement-notes: PDK-1 kinase inhibition ELISA assay (phosphorylation of His6-tagged SGK1 S422D by PDK-1)
Format: biochemical
experimental-parameters: PDK-1 ELISA, Table 11; read-out: Average IC50
As shown below, each of these compounds has a reported IC50 value.

CCN1CCCC1CNc1cc2c(cnc3cc(OCCOC)c(OC)cc32)c(NCC2CCCN2CC)n1 (stereo not shown) ... > 20 µM
COc1cc2ncc3c(N)nc(-c4cncc(C#CCN(C)[C@H](C)Cc5ccccc5)c4)cc3c2cc1OC ... > 0.1 µM
CC(C)(C)OC(=O)N[C@H](COc1cncc(-c2cc3c(cnc4cc(C#CCCn5ccnc5)ccc43)c(N)n2)c1)Cc1ccccc1 ... > 5 µM

For the compound CCN1CCN(CCC#Cc2ccc3ncc4c(N)nc(-n5ccnc5)cc4c3c2)CC1 , give its measured IC50 value.
> 3 µM
